// provenance: the supplement of paper PMC10567573

Quick list: protein stability index per entry.
B1: SLC22A15 (parent)
chain: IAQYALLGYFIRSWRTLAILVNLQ

Variants of: B1
experiment-summary: protein stability index of a GFP-peptide fusion (GPS, HEK-293T) (PSI 1-6); higher = more stable;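 also: lentivirally expressed fusions sorted by FACS into six bins by GFP to DsRed ratio, PSI derived from sequencing read proportions per bin multiplied by bin number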
condition-summary: c terminus: a fixed tail appended

- sequence-text: "IAQYAQLGYFIRSWRTLAILVNLQ [L6Q]"
  protein stability index: 2.46

Lab note: IAQYALLGYFIRSWRTLHILVNLQ [A18H] gave protein stability index of 2.25

protein stability index reading for IAQYALLGYFIRSWRTLAILVKLQ [N22K] : 2.52

The recorded protein stability index for entry IAQYALLGYFIRSWRILAILVNLQ [T16I] equals 4.01

Item: IAQYALLGYFIRSWVTLAILVNLQ [R15V] | protein stability index: 2.88

Please fill in: protein stability index reported for IAQYALLGYFDRSWRTLAILVNLQ [I11D] = 3.1
